Target: Connector enhancer of kinase suppressor of ras 1 (Homo sapiens) (UniProt Q969H4)
Sequence (Q969H4 whole entry): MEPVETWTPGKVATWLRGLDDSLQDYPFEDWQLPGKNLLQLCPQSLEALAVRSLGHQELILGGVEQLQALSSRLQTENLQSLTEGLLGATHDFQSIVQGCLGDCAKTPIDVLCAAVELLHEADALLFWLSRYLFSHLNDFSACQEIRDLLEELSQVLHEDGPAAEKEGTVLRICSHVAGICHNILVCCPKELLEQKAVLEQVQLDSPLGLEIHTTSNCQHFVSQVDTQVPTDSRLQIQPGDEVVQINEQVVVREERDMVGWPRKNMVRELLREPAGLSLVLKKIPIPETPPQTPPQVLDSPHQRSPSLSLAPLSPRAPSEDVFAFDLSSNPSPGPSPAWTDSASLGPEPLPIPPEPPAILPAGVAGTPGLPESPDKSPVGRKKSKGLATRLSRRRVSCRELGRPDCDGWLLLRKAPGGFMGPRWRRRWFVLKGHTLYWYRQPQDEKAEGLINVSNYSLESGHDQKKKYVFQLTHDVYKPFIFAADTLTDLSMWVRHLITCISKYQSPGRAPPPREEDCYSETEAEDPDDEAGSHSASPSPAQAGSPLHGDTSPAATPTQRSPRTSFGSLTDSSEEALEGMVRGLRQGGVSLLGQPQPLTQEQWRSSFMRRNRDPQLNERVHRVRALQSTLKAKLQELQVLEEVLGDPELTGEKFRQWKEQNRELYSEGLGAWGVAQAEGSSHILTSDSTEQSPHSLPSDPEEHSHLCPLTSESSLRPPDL
Assay: Inhibition of CNKSR1 (unknown origin) assessed as reduction in inhibition of KRas signaling effectors by measuring GTP-RalA levels at 20 uM by cell based assay
Active and inactive are the calls of the source. The rule behind the calls is not given here.
test readout: inhibition

Worked cases, inhibition given:
Value of measured inhibition for the entry Cc1ccc(-c2csc(Cn3nc(Cc4nccs4)c4ccccc4c3=O)n2)cc1 : Active

The compound listed as Cc1ccc(-c2csc(Cn3nc(CC4OCC(=O)O4)c4ccccc4c3=O)n2)cc1 (stereo not given) shows inhibition equal to Active

For reference, reported inhibition for Cc1ccc(-c2csc(Cn3nc(CC4OCCCO4)c4ccccc4c3=O)n2)cc1 stands at Active

The compound listed as CCOC(=O)Cc1nn(Cc2nc(-c3ccc(C)cc3)cs2)c(=O)c2ccccc12 has a reported inhibition of Active

Next item in the queue.
Value of measured inhibition for the entry Cc1ccc(-c2csc(Cn3nc(CC(=O)O)c4ccccc4c3=O)n2)cc1 : Active
